# Tested on: SF-539 CNS
# Run Description: NCI-60 one-dose screen, 48 h (100 = growth as untreated, 0 = no growth, -100 = all killed)
# Experimental Context: 10 µM unless noted
The panel holds about 83,000 compounds, 20% with a hit somewhere; the sample as a whole holds those more often.
Please respond with TRUE when measured growth is strictly beneath 70%, and with FALSE in all other cases.

Compound: CC1CCc2c(sc3nc(SCC(=O)N/N=C/c4ccc(Cl)cc4)n(-c4ccccc4)c(=O)c23)C1 (stereo not given)
Group Label: FALSE
//
Compound: NS(=O)(=O)c1ccc(-n2cc(CC=O)nn2)cc1
Group Label: FALSE
//
Compound: Cc1ccc(-n2cc(/C=C/C(=O)c3ccc(S(C)(=O)=O)cc3)c(-c3ccc(S(C)(=O)=O)cc3)n2)cc1
Group Label: FALSE
//
Compound: C=CCn1c(SCC(=O)Nc2cccc(C(=O)/C=C/c3cccc([N+](=O)[O-])c3)c2)nc2ccccc2c1=O
Group Label: FALSE
//
Compound: CCOC(=O)c1c(Nc2ccccc2)nn2c(-c3ccc(OC)c(OC)c3)ccnc12
Group Label: TRUE
//
Compound: CC(=O)Oc1ccc(CCN2C(=O)CSC2=S)cc1
Group Label: FALSE
//
Compound: COc1ccc(OC)c(NC2=C(Cl)C(=O)C(C)=C(C)C2=O)c1
Group Label: FALSE
//
Compound: O=C(COc1ccc(C2SCC(=O)N2c2ccccc2)cc1)c1ccccc1 (stereo not given)
Group Label: FALSE
//
Compound: CCN1C(=O)N(CC)C2SC(N/N=C/c3cccs3)=NC21 (stereo not given)
Group Label: TRUE
//
Compound: CS(=O)(=O)c1nccc(-c2c(-c3ccc(F)c(OCCc4ccc(F)cc4)c3)nc3sccn23)n1
Group Label: FALSE
//
Compound: O=c1oc2ccc(-c3ccc(F)cc3F)cc2c(=O)n1-c1ccc(F)c(F)c1
Group Label: TRUE
//
Compound: COc1cc2cc(Oc3ccc(NC(=O)c4cccc(C(F)(F)F)c4)cc3)c(C)nc2cc1OCCN(C)C
Group Label: TRUE
//
Compound: COc1ccccc1N1CCN(C2=NN=C(c3cccc(Cl)c3)c3ccccc3C2)CC1
Group Label: TRUE
//
Compound: COC(=O)c1c(C(=O)OC)c2n(CC(=O)Nc3cccc4cccnc34)c3ccccc3n2c1C(=O)c1ccc(C)cc1
Group Label: FALSE
//
Compound: CNC(=O)c1cc(Oc2ccc3nc(NC(=O)c4cccc(C(F)(F)F)c4)sc3c2)ccn1
Group Label: FALSE
//
Compound: COc1ccc(-c2oc3cc(O)cc(O)c3c(=O)c2OC)cc1O
Group Label: TRUE
//
Compound: CCOC(=O)c1c(NCC(=O)Nc2cccc(Cl)c2)sc2c1CCCC2
Group Label: FALSE
//
Compound: COc1cc2cc(Oc3ccc(NC(=O)Nc4cccc(C(F)(F)F)c4)cc3)c(C)nc2cc1OCCN(C)C
Group Label: FALSE
//
Compound: CSc1nccc(-c2c(-c3ccc(F)c(OCc4ccc(F)cc4)c3)nc3sccn23)n1
Group Label: FALSE

---

# Tested on: RPMI-8226 leukemia
# Run Description: NCI-60 one-dose screen, 48 h (100 = growth as untreated, 0 = no growth, -100 = all killed)
# Experimental Context: 10 µM unless noted
About 83,000 compounds went through this panel and 20% of them were active in at least one assay; those are over-represented in the sample as a whole.
The label true is reserved for growth strictly under 60%; false covers values equal to or above it.

Compound: C#Cc1ccc(NC(=O)c2ccc(/C=C/C(=O)c3nccn3C)cc2)c(F)c1
Group Label: true
--
Compound: CCCC(=O)NC(c1cccnc1)c1ccc2c(C)ccnc2c1O (stereo not drawn)
Group Label: true
--
Compound: CCN1C(=O)N(CC)C2SC(N/N=C/c3ccc(OC)cc3)=NC21 (stereo not drawn)
Group Label: true
--
Compound: O=C(CSc1nnc(-c2ccc(Cl)cc2)n1-c1ccccc1)Nc1ccc(F)cc1
Group Label: false
--
Compound: c1ccc(-c2n(Cc3ccc4ccccc4c3)c3c4ccccc4c4ccccc4c3[n+]2Cc2ccc3ccccc3c2)cc1
Group Label: true
--
Compound: CC[C@]12C=CCN3CC[C@]4(C(=C(C(=O)OC)C1)Nc1cc5c(cc14)[C@@H]1[C@H](O5)[C@@H](O)[C@@]4(CC)CC(C(=O)OC)=C5Nc6cc(OC)ccc6[C@@]56CCN1[C@@H]46)[C@@H]32
Group Label: true
--
Compound: CCOC(=O)/C=c1\sc2n(c1=O)C1C(NN=2)N(CC)C(=O)N1CC (stereo not drawn)
Group Label: false
--
Compound: O=C1Nc2ccc(Br)cc2/C1=N\c1nnc(-c2ccc(Cl)cc2)o1
Group Label: false

---

# System: CCRF-CEM leukemia
# Run Description: NCI-60 one-dose screen, 48 h (100 = growth as untreated, 0 = no growth, -100 = all killed)
# Experimental Context: 10 µM unless noted
About 83,000 compounds went through this panel and 20% of them were active in at least one assay; those are over-represented in the sample as a whole.
// values below are reported growth

Compound: O=C(O)c1ccc(-n2cc(CNc3ccc(Cl)cc3)c(-c3ccc(F)cc3)n2)cc1
Study Target: CCRF-CEM leukemia
Unit String: %
growth: 91.8
//
Compound: CCOC(=O)C1=C(C)N=C2Sc3ccccc3N2C1c1ccccc1 (configuration not stated)
Study Target: CCRF-CEM leukemia
Unit String: %
growth: 86.2
//
Compound: O=C(NCCNc1cc(-c2cn(-c3ccccc3)nc2-c2cccc(O)c2)ccn1)Nc1ccc(Cl)c(C(F)(F)F)c1
Study Target: CCRF-CEM leukemia
Unit String: %
growth: 54.1
//
Compound: CN1CCN(Cc2ccc(NC(=O)c3cncc(C#Cc4[nH]nc5ncncc45)c3)cc2C(F)(F)F)CC1
Study Target: CCRF-CEM leukemia
Unit String: %
growth: 51
//
Compound: CN1CCN(c2nc(-c3cnc4ccccc4n3)cc3ccccc23)CC1
Study Target: CCRF-CEM leukemia
Unit String: %
growth: 55.6
//
Compound: O=C1c2c(c3c4cc(O)ccc4oc3c3[nH]c4ccccc4c23)C(=O)N1O
Study Target: CCRF-CEM leukemia
Unit String: %
growth: 1.62
//
Compound: COc1ccc(NC(=O)Cn2cc(CN3C(=O)c4ccc([N+](=O)[O-])cc4C3=O)nn2)cc1
Study Target: CCRF-CEM leukemia
Unit String: %
growth: 109

---

Parameter: growth. Scope: all listed entries.
# System: OVCAR-3 ovarian
# Run Description: NCI-60 one-dose screen, 48 h (100 = growth as untreated, 0 = no growth, -100 = all killed)
# Experimental Context: 10 µM unless noted
This is part of a sample that, as a whole, favours compounds with a hit. Of some 83,000 tested, about 20% had one in any assay.

Structure String: O=[N+]([O-])c1ccc(-c2nnc(SCc3ccc(O)c4ncccc34)o2)cc1
growth [%]: 8.31
//
Structure String: C=C(C)C(=O)O[C@H]1C[C@@]2(C)OC(=CC2=O)/C(CO)=C\[C@H]2OC(=O)C(=C)[C@H]12
growth [%]: -93.6
//
Structure String: C#C[C@]1(O)CC[C@H]2[C@@H]3CC=C4c5sc(-c6ccc(OC)cc6)nc5CC[C@]4(C)[C@H]3CC[C@@]21C
growth [%]: 83.2
//
Structure String: COc1cc(/C=N/n2cnc3oc(-c4ccccc4)cc3c2=N)cc(CN2CCOCC2)c1O
growth [%]: 108

---

# Test system: SR leukemia
# Run Description: NCI-60 one-dose screen, 48 h
# Experimental Context: 10 µM unless noted
The panel holds about 83,000 compounds, 20% with a hit somewhere; the sample as a whole holds those more often. Calls of active or inactive are those of the source. Rule for the calls: active = growth percent below 10; inactive = the rest.
Labels: active, inactive

Compound: Oc1ccccc1-c1nnc(SCc2ccc(O)c3ncccc23)o1
Group Label: inactive
//
Compound: CC[C@H](C)[C@H]1NC(=O)[C@@H]([C@H](O)C(C)C)NC(=O)[C@@H](C)N(C)C(=O)[C@H](C)N(C)C(=O)[C@H](CC(C)C)NC(=O)[C@H](CC(C)C)N(C)C(=O)[C@H](C)N(C)C1=O
Group Label: active
//
Compound: CS(=O)(=O)c1nccc(-c2c(-c3ccc(F)c(OCCc4ccc(F)cc4)c3)nc3sccn23)n1
Group Label: active
//
Compound: CCCCCc1ccc(S(=O)(=O)N(C(C)=O)c2cccc(-c3csc(N(CCN4CCN(C)CC4)C(C)=O)n3)c2)cc1
Group Label: active
//
Compound: O=C(Nc1cc(Cl)cc(Cl)c1)Nc1nc2ccc([N+](=O)[O-])cc2s1
Group Label: active
//
Compound: Cc1cc2nc(C(Cl)Cl)nc(-c3ccco3)n2n1
Group Label: inactive
//
Compound: CCCCCCNC(=O)Oc1ccc(/C(=C(\C)c2ccc(Cl)cc2)c2ccc(OCCN(C)C)cc2)cc1
Group Label: active
//
Compound: O=C(Nc1ccc(F)cc1)c1cc(-c2ccc(F)cc2F)ccc1O
Group Label: inactive
//
Compound: CC(=O)Nc1ccc(NC(=O)Nc2cccc(-c3nc(-c4ccc(NC(=O)c5cccs5)cc4Cl)no3)c2)cc1C(F)(F)F
Group Label: active
//
Compound: Nc1cc(F)ccc1NC(=O)c1ccc(NC(=O)C/C=C/c2cccnc2)cn1
Group Label: inactive
//
Compound: Oc1ccc(CSc2nnc(-c3ccccc3)n2-c2ccccc2)c2cccnc12
Group Label: inactive
//
Compound: O=S(=O)(NC1CC2CCC1C2)c1ccc2c(c1)C(=NO)c1cc(S(=O)(=O)NC3CC4CCC3C4)ccc1-2 (configuration not stated)
Group Label: active
//
Compound: C#CCOc1ccc(C(Nc2cc(Cl)ccc2Cl)c2nnnn2C2CCCCC2)cc1 (configuration not stated)
Group Label: inactive
//
Compound: C=C(C)[C@@H]1CC[C@]2(C(=O)ON)CC[C@]3(C)[C@H](CC[C@@H]4[C@@]5(C)C/C(=C/c6ccc(Br)cc6)C(=O)C(C)(C)[C@@H]5CC[C@]43C)[C@@H]12
Group Label: inactive
//
Compound: NC(N)=NS(=O)(=O)c1ccc(N=NC2C(=O)NN(c3ccccc3)C2=O)cc1 (configuration not stated)
Group Label: inactive
//
Compound: Cc1nn(-c2ccccc2)c2nc(CCl)[nH]c(=O)c12
Group Label: inactive
//
Compound: CC(C)(C)OC(=O)N1CCN(S(=O)(=O)/N=C2\NC(=O)NC2=C(Cl)Cl)CC1
Group Label: inactive

The reported numbers originate from PubChem BioAssay (NCI).
